System: U2OS
Test: Multiplex assay against U2OS
Type: toxicity, cell-based
Settings: human, 24 h, 1 µM, compound concentration 1 uM, replicate 1
observed-property: Population Apoptotic (%)
Use % as the unit, but write only the number.

Assay U2OS, sample CN(C)C(=O)/C(C#N)=C/c1ccc(-c2nc3cnc4[nH]ccc4c3n2C2CCCCC2)o1 , Population Apoptotic (%) read: 75

Assay U2OS, sample CC(C)NCC(O)COc1ccc(CCOCC2CC2)cc1.Cl (stereo not given) [BETAXOLOL HYDROCHLORIDE] , Population Apoptotic (%) read: 28

Assay U2OS, sample C=CC(=O)Nc1cc2c(Nc3ccc(F)c(Cl)c3)ncnc2cc1OCCCN1CCOCC1.Cl.Cl [CANERTINIB DIHYDROCHLORIDE] , Population Apoptotic (%) read: 99

Assay U2OS, sample Cc1[nH]c(/C=C2\C(=O)Nc3ccc(S(=O)(=O)N(C)c4cccc(Cl)c4)cc32)c(C)c1C(=O)N1CCN(C)CC1 , Population Apoptotic (%) read: 73

Assay U2OS, sample C[C@@H](NCCCc1cccc(C(F)(F)F)c1)c1cccc2ccccc12.Cl [CINACALCET HYDROCHLORIDE] , Population Apoptotic (%) read: 29

Assay U2OS, sample CN(C)C(=O)N[C@H]1CC[C@H](CCN2CCN(c3cccc(Cl)c3Cl)CC2)CC1.Cl [CARIPRAZINE HYDROCHLORIDE] , Population Apoptotic (%) read: 41

Assay U2OS, sample CNc1nc(NCc2ccc(NS(C)(=O)=O)cc2Cl)cc(-c2ccccn2)n1 , Population Apoptotic (%) read: 50

Assay U2OS, sample OC1(c2ccc(Cl)cc2)CCN(Cc2c[nH]c3ccccc23)CC1 , Population Apoptotic (%) read: 50

Assay U2OS, sample NC(=O)Nc1cc(-c2cccc(F)c2)sc1C(=O)N[C@H]1CCCNC1 [AZD-7762] , Population Apoptotic (%) read: 40

Assay U2OS, sample C=CC(=O)Nc1cccc(C(=O)Nc2ccc(Nc3cc(-c4[nH]c(SC)nc4C)ccn3)cc2)c1 , Population Apoptotic (%) read: 40

Assay U2OS, sample CN(C)CC#Cc1ccc(OCCCc2sc(N3CCc4cccc(C(=O)Nc5nc6ccccc6s5)c4C3)nc2C(=O)O)c(F)c1 [A-1155463] , Population Apoptotic (%) read: 47

Assay U2OS, sample Cc1csc2c(N[C@@H](C)CN3CCN(S(=O)(=O)c4ccc(Cl)c(Cl)c4)CC3)ncnc12 , Population Apoptotic (%) read: 73

Assay U2OS, sample Cc1nc(-c2cn3c(n2)-c2ccc(-c4cnn(C(C)(C)C(N)=O)c4)cc2OCC3)n(C(C)C)n1 [TASELISIB] , Population Apoptotic (%) read: 40

Assay U2OS, sample Cc1nc(-c2ccc(-c3ccc(C(=O)N4CCc5cc6c(cc54)C4(CCN(C)CC4)CO6)cc3)c(C)c2)no1 [SB-224289] , Population Apoptotic (%) read: 53

Assay U2OS, sample CN1CCN(c2ccc(OC(F)(F)F)c(Nc3ncc4c(n3)-c3c(c(C(N)=O)nn3CCO)CC4)c2)CC1 [ONVANSERTIB] , Population Apoptotic (%) read: 35

Assay U2OS, sample COc1ncc(-c2ccc3nccc(-c4ccnnc4)c3c2)cc1NS(=O)(=O)c1ccc(F)cc1F [OMIPALISIB] , Population Apoptotic (%) read: 62

Assay U2OS, sample Cc1cc(C)cc(-c2cnc3cc(Cl)c(-c4cccc(O)c4)cc3c2OCCCN)c1 , Population Apoptotic (%) read: 35

Assay U2OS, sample Cl.N#Cc1ccc2[nH]cc(CCCCN3CCN(c4ccc5oc(C(N)=O)cc5c4)CC3)c2c1 [VILAZODONE HYDROCHLORIDE] , Population Apoptotic (%) read: 56

Assay U2OS, sample CC[C@H](C)C(=O)O[C@H]1C[C@@H](C)C=C2C=C[C@H](C)[C@H](CC[C@@H]3C[C@@H](O)CC(=O)O3)[C@H]21 [LOVASTATIN] , Population Apoptotic (%) read: 18

Assay U2OS, sample O=C1NCN(c2ccccc2)C12CCN(CCCOc1ccc(F)cc1)CC2 [SPIRAMIDE] , Population Apoptotic (%) read: 27

Assay U2OS, sample C[C@@]1(C(=O)Nc2ccc(F)nc2)CCCN1c1nc(Nc2cc(C3CC3)n[nH]2)c2cccn2n1 [BMS-754807] , Population Apoptotic (%) read: 38

Assay U2OS, sample COc1cc(-n2cnc3cc(-c4ccc(Cl)cc4)sc3c2=O)ccc1OCCN1CCCC1 , Population Apoptotic (%) read: 56

Assay U2OS, sample Cc1c(-c2ccc(O)cc2)n(Cc2ccc(OCCN3CCCCCC3)cc2)c2ccc(O)cc12 [BAZEDOXIFENE] , Population Apoptotic (%) read: 24

Assay U2OS, sample COc1cccc([C@@H](C)NCCCc2ccccc2Cl)c1.Cl [TECALCET HYDROCHLORIDE] , Population Apoptotic (%) read: 44

Assay U2OS, sample CN1CCN(CCOc2cc(OC3CCOCC3)c3c(Nc4c(Cl)ccc5c4OCO5)ncnc3c2)CC1 [SARACATINIB] , Population Apoptotic (%) read: 44

All figures here come from ChEMBL document CHEMBL4689842.
